We begin with a simple list: items and their reported phosphorylation enrichment.
# MEASURED ON: Fes (UniProt P07332)
# Sequence (P07332 whole entry, looked up): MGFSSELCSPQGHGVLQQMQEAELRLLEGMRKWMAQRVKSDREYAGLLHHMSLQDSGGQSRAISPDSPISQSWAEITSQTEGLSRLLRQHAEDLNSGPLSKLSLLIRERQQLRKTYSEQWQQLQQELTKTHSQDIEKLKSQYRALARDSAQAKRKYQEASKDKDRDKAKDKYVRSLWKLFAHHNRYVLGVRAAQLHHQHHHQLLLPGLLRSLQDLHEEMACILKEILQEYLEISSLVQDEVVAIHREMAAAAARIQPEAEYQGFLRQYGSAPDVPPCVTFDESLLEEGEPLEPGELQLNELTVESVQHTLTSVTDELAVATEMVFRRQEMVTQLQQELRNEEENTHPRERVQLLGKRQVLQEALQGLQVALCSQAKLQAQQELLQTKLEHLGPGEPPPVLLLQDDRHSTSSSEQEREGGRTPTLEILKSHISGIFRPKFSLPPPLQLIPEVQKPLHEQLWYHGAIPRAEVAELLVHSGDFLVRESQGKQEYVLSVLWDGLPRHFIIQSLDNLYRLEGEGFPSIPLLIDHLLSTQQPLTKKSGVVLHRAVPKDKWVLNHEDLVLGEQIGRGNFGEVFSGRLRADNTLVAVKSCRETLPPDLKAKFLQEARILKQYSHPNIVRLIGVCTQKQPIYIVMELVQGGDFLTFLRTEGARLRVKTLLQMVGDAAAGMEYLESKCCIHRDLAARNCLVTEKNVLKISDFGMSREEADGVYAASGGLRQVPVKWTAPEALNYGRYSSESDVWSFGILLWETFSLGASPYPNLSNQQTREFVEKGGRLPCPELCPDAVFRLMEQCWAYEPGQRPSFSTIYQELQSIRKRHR
# PROTOCOL TEXT: phosphorylation enrichment, bacterial display (enrichment ratio); higher = better substrate or ligand; peptides without Tyr show the background;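 also: 11-residue human phosphosite peptides and single-mutation variants displayed on the E. coli surface, counted by deep sequencing, each peptide's frequency after selection divided by its frequency in the unselected input library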;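 also: frequency after pTyr selection over input frequency; kinase dosed for 20-30% of maximal phosphorylation in three min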

SEQUENCE CODE | phosphorylation enrichment
YRRITYHNWRH [PDE6B_Y556] | 0.637
NPSFNYEIVNR [DYNC1H1_Y3379_YF] | 1.19
SVTCTGSPALN [TP53_Y126_Y126G] | 0.972
RHTRSYDFMEG [FGF7_Y56_YF] | 1.19
EVDETYVPKEF [ALB_Y521] | 1.58
QYQLKYSETPF [SIX6OS1_Y129] | 1.1
WNDLDYVDSRR [GAA_Y407_M408V] | 0.94
KGNMFYENSFA [EGFR_Y113_R108K_YF] | 0.705
LSQQVYRVNLS [FAT4_Y480_F475L] | 0.751
AGLVQYFMEHH [PTPN11_Y80_E76G_YF] | 1.12
RYLTRYIYNRE [HLA-DQB1_Y62_V59L] | 1.32
LQTFRYHGLSM [PDHA1_Y289_H292L_YF] | 1.21
SVAVPYEPPEV [TP53_Y220_V217A] | 1.31
IKELTYQTEED [MYH7_Y1852] | 1.33
KRNSLYSFSDH [CCDC82_Y331_Q327R] | 0.55
CNSFRYGGGGG [NPPA_Y151] | 0.766
NGSFLYVIISQ [LRP1B_Y1988_R1987L] | 1.44
SSAAGYACLAF [MVD_Y131_YF] | 1.07
EMFNPYFGLFE [NEDD4L_Y679_YF] | 1.21
FRIGPYQPSVP [MATR3_Y784_N787S_YF] | 0.868
GKMPQYLESMQ [CYB5R3_Y130_S128P] | 0.701
SVVVPCEPPEV [TP53_Y220_Y220C] | 1.18
DKATEYIQFMR [MAX_Y70_YF] | 1.01
GTGTAYLCGVK [ALPL_Y117_A114G] | 0.754
HLELNYKEDEY [MME_Y502_Y497H] | 0.994
LFIDSYEKDVA [PGM1_Y521_YF] | 2.05
DDHFTYSRFPW [LY75_Y888_YF] | 1.07
YAREGYSALPQ [SARS2_Y52] | 0.789
RSAGKYDVFFI [MECP2_Y120_L124F_YF] | 1.09
PDMHSYVVRFN [GRIN2D_Y732_M733V_YF] | 1.04
DTQNSYWCATS [TSC1_Y304_G305W] | 0.916
REIHDYIKHLG [UNC13C_Y308_D304E] | 1.26
DAANNYARGHF [TUBA3E_Y103_S101N_YF] | 0.652
AERKLYRNVML [ZNF569_Y33_Q29E] | 0.519
DAICFYRMENA [NPHS2_Y195_YF] | 1.47
NLTVNYKKNLI [SQOR_Y259] | 1.05
NKEPRYQEEPP [TJP2_Y479_D482E] | 1.18
EVEPTYVVLFD [ERCC4_Y577_R576T_YF] | 1.21
RIFDFYSARKA [STOX1_Y858_YF] | 1.59
SDGHEYIFVDR [PDGFRB_Y579_P584R_YF] | 0.759
RNLLIYTEFGK [HGD_Y166_G161R] | 1.22
GNEEAYGRSHI [FAM171B_Y522] | 0.823
SVGGCYEQLFV [MC4R_Y41_D37V] | 1.42
ATQDNYVLEVR [PTPRZ1_Y2179_D2178N] | 1.08
RTCSSYAIEKI [PARP15_Y520] | 0.986
WNDPDYMDSRR [GAA_Y407_L405P] | 1
KVKVEYDMTVP [AHNAK_Y964_G962V] | 1.03
APSEFYDGDHD [HDAC3_Y414_N411S] | 1.35
CFTRQYTLPPG [HSPB1_Y142_K141Q] | 0.943
SQQTYYPVSNM [ABCD1_Y181_R182P] | 0.68
QKTGDYFDLFG [PTPN11_Y62_N58K_YF] | 1.04
RQNQEYEILLD [KRT39_Y379] | 1.6
TVMGLYQKSSL [MYH7_Y609_V606M] | 0.797
SFTDPYAQPSL [KMT2D_Y2378_P2382S_YF] | 0.806
PFFTSYPPSPD [GDAP2_Y491_YF] | 1.15
ENELTYYCYKK [CD59_Y86_C89Y] | 1.69
